The values you see were collected from patent US10501414B2.

measurement_target: OXE receptor (Homo sapiens, UniProt Q8TDS5)
Construct: Human granulocytes (≥95% neutrophils) are prepared from whole blood; endogenous in cells; host or cells: human granulocytes (≥95% neutrophils) from whole blood
Sequence (Q8TDS5 whole entry): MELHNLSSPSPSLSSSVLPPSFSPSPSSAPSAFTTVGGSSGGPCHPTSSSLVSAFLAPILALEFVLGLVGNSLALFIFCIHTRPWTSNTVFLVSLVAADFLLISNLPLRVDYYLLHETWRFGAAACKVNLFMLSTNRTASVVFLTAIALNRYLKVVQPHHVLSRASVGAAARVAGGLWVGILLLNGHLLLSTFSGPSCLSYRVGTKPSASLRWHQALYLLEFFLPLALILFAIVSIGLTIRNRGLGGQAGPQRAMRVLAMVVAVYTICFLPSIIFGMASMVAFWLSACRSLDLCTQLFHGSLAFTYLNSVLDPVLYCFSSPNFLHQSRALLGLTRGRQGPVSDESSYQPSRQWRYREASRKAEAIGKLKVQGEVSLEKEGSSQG
assay_info: Calcium mobilization in human granulocytes (inhibition of 5-oxo-ETE-induced calcium mobilization)
Assay type: cell-based
assay_context: inhibition of calcium mobilization induced by 5-oxo-ETE (10 nM) in human granulocytes; bracketed figure in cell = n; read-out: IC50
quantity_name: IC50 (nM)

CC(CC(=O)O)CC(=O)c1c(CCCCCCc2cccc(O)c2)n(C)c2ccc(Cl)cc12 (stereo not shown) : 1.9
COc1cccc(CCCCCCc2c(C(=O)C[C@@H](C)CC(=O)O)c3cc(Cl)ccc3n2C)c1 (single isomer, unassigned) : 50
C[C@H](CC(=O)O)CC(=O)c1c(CCCCCCc2ccc(Cl)cc2)n(C)c2ccc(Cl)cc12 : 0.47

1 = C[C@H](CC(=O)O)CC(=O)c1c(CCCCCCc2ccccc2F)n(C)c2ccc(Cl)cc12 (single isomer, unassigned)
2 = C[C@@H](CC(=O)O)CC(=O)c1c(CCCCCCc2ccccc2Cl)n(C)c2ccc(Cl)cc12 (single isomer, unassigned)
3 = CC(CC(=O)O)CC(=O)c1c(CCCCCCc2cccc(F)c2)n(C)c2ccc(Cl)cc12 (racemic)
Task: Parameters: sort_field (IC50), sort_dir (desc). Show the ranking through the labels, in the order asked for.
Result: 2, 1, 3
